Target: CDK4/cyclin D3 (Homo sapiens)
Construct: purchased Carna Biosciences, Inc. QS S Assist CDK4/Cyclin D3_FP Kit
Sequence (P11802 whole entry): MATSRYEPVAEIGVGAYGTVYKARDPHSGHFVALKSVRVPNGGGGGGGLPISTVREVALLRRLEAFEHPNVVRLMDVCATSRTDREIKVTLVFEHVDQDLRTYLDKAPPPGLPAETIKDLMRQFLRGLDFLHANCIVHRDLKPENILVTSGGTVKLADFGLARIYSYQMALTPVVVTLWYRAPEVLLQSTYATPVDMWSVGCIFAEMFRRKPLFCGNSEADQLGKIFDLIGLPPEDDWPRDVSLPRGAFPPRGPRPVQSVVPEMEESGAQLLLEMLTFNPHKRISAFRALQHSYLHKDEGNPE
Sequence (P30281 whole entry partner): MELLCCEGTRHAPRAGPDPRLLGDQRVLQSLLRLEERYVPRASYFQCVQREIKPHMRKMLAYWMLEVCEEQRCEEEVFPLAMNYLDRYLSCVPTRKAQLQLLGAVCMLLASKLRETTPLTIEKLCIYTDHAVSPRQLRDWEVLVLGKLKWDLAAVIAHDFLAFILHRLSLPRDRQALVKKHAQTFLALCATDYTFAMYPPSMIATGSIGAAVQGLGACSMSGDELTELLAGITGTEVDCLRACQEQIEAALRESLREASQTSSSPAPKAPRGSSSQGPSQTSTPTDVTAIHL
Test: Human CDK4/cyclin D3 inhibitory activity (QS S Assist CDK4/Cyclin D3_FP Kit, IMAP fluorescence polarization)
Assay type: biochemical
Settings: 50% inhibitory concentration against CDK4/cyclin D3, given as class symbol
Can you tell me IC50 for the items I'm about to list?

**Query** Return reported IC50; argument: c1cc2c(nc1Nc1ncc3cc(C4CCOC4)nc(N[C@H]4CCCOC4)c3n1)CCNC2 (stereo partly drawn) [Compound 886]
**Result** < 10 nM

**Query** Return reported IC50; argument: C[C@@H](O)c1cc2cnc(Nc3ccc(C4CCN(C(C)(C)C(=O)O)CC4)cn3)nc2c(NC(C)(C)C)n1
**Result** < 10 nM

**Query** Return reported IC50; argument: CC(C)Nc1nc(C2CCOC2)cc2cnc(Nc3ccc(CN4CCN(CC#N)CC4)cn3)nc12 (stereo not drawn) [Compound 1012]
**Result** < 10 nM

**Query** Return reported IC50; argument: O=C(CO)N1CCc2nc(Nc3ncc4cc(C5CCOC5)nc(N[C@H]5CC[C@H](O)CC5)c4n3)ccc2C1 (stereo partly drawn)
**Result** < 10 nM

**Query** Return reported IC50; argument: C[C@@H](O)c1cc2cnc(Nc3ccc(N4CCNCC4=O)cn3)nc2c(NC2(C)CCCOC2)n1 (stereo partly drawn)
**Result** < 10 nM

**Query** Return reported IC50; argument: CCNc1nc([C@@H](C)O)cc2cnc(Nc3ccc(CN4CCN(C[C@H](C)O)CC4)cn3)nc12
**Result** < 10 nM

**Query** Return reported IC50; argument: C[C@@H](O)c1cc2cnc(Nc3ccc(N4CCNCC4=O)cn3)nc2c(NC2CC(F)(F)C2)n1
**Result** 10 to 100 nM

**Query** Return reported IC50; argument: CC(C)Nc1nc(C(F)F)c(Cl)c2cnc(Nc3ccc(N4CCNCC4=O)cn3)nc12
**Result** 10 to 100 nM

**Query** Return reported IC50; argument: CCNc1nc([C@@H](C)O)cc2cnc(Nc3ccc(CN4CCN(C[C@@H](C)O)CC4)cn3)nc12
**Result** < 10 nM

**Query** Return reported IC50; argument: c1cc(N2CCNCC2)nnc1Nc1ncc2cc(C3CCOC3)nc(N[C@H]3CCCOC3)c2n1 (single isomer, unassigned) [Compound 938]
**Result** < 10 nM

**Query** Return reported IC50; argument: CC(C)Nc1nc([C@@H](C)O)cc2cnc(Nc3ccc(N4CCNC(C(F)(F)F)C4)cn3)nc12 (stereo partly drawn)
**Result** < 10 nM

**Query** Return reported IC50; argument: C[C@@H](O)c1cc2cnc(Nc3ccc(N4CCNCC4)cn3)nc2c(N[C@H]2CCOC2)n1
**Result** < 10 nM

**Query** Return reported IC50; argument: CO[C@H](C)c1cc2cnc(Nc3ccc(CN4CCN(CC(=O)N(C)C)CC4)cn3)nc2c(NC(C)C)n1
**Result** < 10 nM

**Query** Return reported IC50; argument: CCCNc1nc([C@@H](C)OC)cc2cnc(Nc3ccc4c(n3)CCN(CCN(C)C)C4)nc12
**Result** 10 to 100 nM

**Query** Return reported IC50; argument: CCCNc1nc([C@@H](C)OC)cc2cnc(Nc3ccc(N4CCNCC4)cn3)nc12
**Result** < 10 nM
